target: recombinant hMAO-B (Homo sapiens, UniProt P27338); test: MAO-B inhibition assay; assay type: biochemical; conditions: 30 min preincubation, 37 °C
Sequence (P27338 whole entry): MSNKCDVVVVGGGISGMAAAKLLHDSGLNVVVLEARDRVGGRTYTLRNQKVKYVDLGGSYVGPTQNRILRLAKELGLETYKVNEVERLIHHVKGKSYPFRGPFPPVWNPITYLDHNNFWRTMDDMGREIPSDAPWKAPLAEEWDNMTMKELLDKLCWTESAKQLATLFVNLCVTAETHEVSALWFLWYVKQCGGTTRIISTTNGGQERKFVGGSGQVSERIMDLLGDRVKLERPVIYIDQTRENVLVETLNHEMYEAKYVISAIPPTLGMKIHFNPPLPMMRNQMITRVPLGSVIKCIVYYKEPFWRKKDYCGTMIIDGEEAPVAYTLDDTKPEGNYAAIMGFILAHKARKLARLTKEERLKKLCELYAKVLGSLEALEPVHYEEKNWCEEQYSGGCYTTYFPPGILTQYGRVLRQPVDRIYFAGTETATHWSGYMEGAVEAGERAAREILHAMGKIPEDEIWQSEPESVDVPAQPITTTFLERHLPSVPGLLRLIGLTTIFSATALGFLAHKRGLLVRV
measured quantity: IC50 (µM)
Just the number please, in µM, no unit attached.

Problem: Given the entry O=C(/C=C/c1cccc(S(=O)(=O)n2ccc3cc(OCCCN4CCCCC4)ccc32)c1)NO , report its measured IC50.
Result: 1.5

----------
tested on: U251-MG cells; test: MTT cell viability, U251-MG; format: cell-based; settings: MTT
measured quantity: IC50 (µM)
Just the number please, in µM, no unit attached.

Problem: Given the entry O=C(/C=C/c1cccc(S(=O)(=O)n2ccc3cc(OCCCN4CCCCC4)ccc32)c1)NO [MTP150] , report its measured IC50.
Result: 1
